assay.remarks: Cell proliferation and toxicity assay
Assay type: cell-based
run.parameters: human, CEM cells; 10 μg/ml, 72 hours
measured.metric: viability at 72 h, 10 µg/mL (%)
Numbers only; they are read as %.

[Q] Given Ac-LQARILAVERYLKDQQQ-NH2 [DP-116, reference compound] , state its recorded viability at 72 h, 10 µg/mL.
[A] 98

###

assay.remarks: Cell proliferation and toxicity assay
Format: cell-based
run.parameters: human, CEM cells; 10 μg/ml, 0 hours
measured.metric: viability at 0 h, 10 µg/mL (%)
Response body: numeric value in %, unit text excluded.

[Q] Please give the measured viability at 0 h, 10 µg/mL for this substance: Ac-LQARILAVERYLKDQQQ-NH2 [DP-116, reference compound]
[A] 98
